# assay.protocol: Nanoparticle diameter and polydispersity by dynamic light scattering (Malvern Zetasizer)
# Assay type: physicochemical
# protocol.conditions: siRNA-lipid complexes, N/P = 15
observed.property: Nanoparticle diameter as measured by dynamic light scattering (nm)

compound	display.unit	assay.result
CCCCC/C=C\C/C=C\CCCCCCCC(=O)NC(CS)C(=O)NC(Cc1cnc[nH]1)C(=O)NCCNC(=O)CCN(CCN)CCC(=O)NCCNC(=O)C(Cc1cnc[nH]1)NC(=O)C(CS)NC(=O)CCCCCCC/C=C\C/C=C\CCCCC (stereo not shown) [EHCLn]	nm	60
CCCCCCCC/C=C\CCCCCCCC(=O)N[C@@H](CS)C(=O)NCCNC(=O)CCN(CCN)CCC(=O)NCCNC(=O)[C@H](CS)NC(=O)CCCCCCC/C=C\CCCCCCCC	nm	42
CCCCCCCC/C=C\CCCCCCCC(=O)NC(CS)C(=O)NCCNC(=O)CCN(CCCNCCCCNCCCN)CCC(=O)NCCNC(=O)C(CS)NC(=O)CCCCCCC/C=C\CCCCCCCC (stereo not shown)	nm	53
CCCCC/C=C\C/C=C\CCCCCCCC(=O)NC(CS)C(=O)NCCNC(=O)CCN(CCCNCCCCNCCCN)CCC(=O)NCCNC(=O)C(CS)NC(=O)CCCCCCC/C=C\C/C=C\CCCCC (stereo not shown)	nm	48
CCCCC/C=C\C/C=C\CCCCCCCC(=O)NC(CS)C(=O)NC(Cc1cnc[nH]1)C(=O)NCCNC(=O)CCN(CCCNCCCCNCCCN)CCC(=O)NCCNC(=O)C(Cc1cnc[nH]1)NC(=O)C(CS)NC(=O)CCCCCCC/C=C\C/C=C\CCCCC (stereo not shown) [SHCLn]	nm	75
CCCCCCCC/C=C\CCCCCCCC(=O)NC(CS)C(=O)NC(Cc1cnc[nH]1)C(=O)NCCNC(=O)CCN(CCN)CCC(=O)NCCNC(=O)C(Cc1cnc[nH]1)NC(=O)C(CS)NC(=O)CCCCCCC/C=C\CCCCCCCC (stereo not shown)	nm	51
CCCCCCCC/C=C\CCCCCCCC(=O)NC(CS)C(=O)NC(Cc1cnc[nH]1)C(=O)NCCNC(=O)CCN(CCCNCCCCNCCCN)CCC(=O)NCCNC(=O)C(Cc1cnc[nH]1)NC(=O)C(CS)NC(=O)CCCCCCC/C=C\CCCCCCCC (stereo not shown)	nm	46
